test system: KRAS-mutant PDC multicell tumor spheroid viability; assay: Anticancer human tumor 521955-158-R2-J5-PDC patient-derived pancreatic carcinoma cell line growth inhibition [KRAS2]; details: second compound 10 µM; first compound 0.0316 µM; hits give low values;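 also: viability read after seven days of drug exposure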
I'd appreciate it if you could supply viability, T/C values for the items below.

Take a look at these entries with their results.
molecule="CC1COCCN1c1cc(-c2ccnn2C)c2ccnc(-c3ccn[nH]3)c2n1 (stereo unspecified) + CC1OCC2(CCN(c3cnc(Sc4ccnc(N)c4Cl)c(N)n3)CC2)C1N" target_entity="KRAS-mutant PDC multicell tumor spheroid viability" result=27.4%
molecule="O=C(c1cc(Cc2n[nH]c(=O)c3ccccc23)ccc1F)N1CCN(C(=O)C2CC2)CC1 + CC1OCC2(CCN(c3cnc(Sc4ccnc(N)c4Cl)c(N)n3)CC2)C1N" target_entity="KRAS-mutant PDC multicell tumor spheroid viability" result=43.2%
molecule="CC(=O)OC12COC1CC(O)C1(C)C(=O)C(O)C3=C(C)C(OC(=O)C(O)C(NC(=O)OC(C)(C)C)c4ccccc4)CC(O)(C(OC(=O)c4ccccc4)C21)C3(C)C (stereo unspecified) + C=CC(=O)N1CCN(c2nc(=O)n(-c3c(C)ccnc3C(C)C)c3nc(-c4c(O)cccc4F)c(F)cc23)C(C)C1" target_entity="KRAS-mutant PDC multicell tumor spheroid viability" result=13.1%

Please give viability, T/C for each item listed below.
1. COC(=O)c1ccc2c(C(=Nc3ccc(N(C)C(=O)CN4CCN(C)CC4)cc3)c3ccccc3)c(O)[nH]c2c1 + C=CC(=O)N1CCN(c2nc(=O)n(-c3c(C)ccnc3C(C)C)c3nc(-c4c(O)cccc4F)c(F)cc23)C(C)C1
2. CC(C)NCC(C(=O)N1CCN(c2ncnc3c2C(C)CC3O)CC1)c1ccc(Cl)cc1 (stereo unspecified) + C=CC(=O)N1CCN(c2nc(=O)n(-c3c(C)ccnc3C(C)C)c3nc(-c4c(O)cccc4F)c(F)cc23)C(C)C1
3. COc1cc(Nc2ncc3c(n2)-c2ccc(Cl)cc2C(c2c(F)cccc2OC)=NC3)ccc1C(=O)O + CC1OCC2(CCN(c3cnc(Sc4ccnc(N)c4Cl)c(N)n3)CC2)C1N
4. CC(=O)Nc1cccc(-n2c(=O)n(C3CC3)c(=O)c3c(Nc4ccc(I)cc4F)n(C)c(=O)c(C)c32)c1 + CNCc1ccccc1-c1csc(C(C)Nc2nc(C)nc3cc(OC)c(OC)cc23)c1
5. CCN1CCN(Cc2ccc(Nc3ncc(F)c(-c4cc(F)c5nc(C)n(C(C)C)c5c4)n3)nc2)CC1 + CC1OCC2(CCN(c3cnc(Sc4ccnc(N)c4Cl)c(N)n3)CC2)C1N
6. CC1COCCN1c1cc(-c2ccnn2C)c2ccnc(-c3ccn[nH]3)c2n1 (stereo unspecified) + CNCc1ccccc1-c1csc(C(C)Nc2nc(C)nc3cc(OC)c(OC)cc23)c1

[out]
1. 66.5%
2. 69.5%
3. 37.8%
4. 0.26%
5. 63.5%
6. 0.15%

Please give viability, T/C for each item listed below.
1. O=C(c1cc(Cc2n[nH]c(=O)c3ccccc23)ccc1F)N1CCN(C(=O)C2CC2)CC1 + CNCc1ccccc1-c1csc(C(C)Nc2nc(C)nc3cc(OC)c(OC)cc23)c1
2. CCN1CCN(Cc2ccc(Nc3ncc(F)c(-c4cc(F)c5nc(C)n(C(C)C)c5c4)n3)nc2)CC1 + COc1cc2nc(C)nc(NC(C)c3cc(N)cc(C(F)(F)F)c3)c2cc1OC1CCOC1

[out]
1: 0.16%; 2: 74.4%
